Measured values drawn from PubChem BioAssay for this set.

Can you tell me composite z-score for the items I'm about to list?
assayExplanation: COS7 lysate on small-molecule microarray, probe aHis, 635 nm (AID 1123);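 also: z-score combines 667nm fluorescence intensity with signal-to-noise per printed compound spot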
testSettings: COS7 cell lysate, fluorescence, higher = more signal
A bare number is all that is needed in reply.

Prompt line: // lookup composite z-score for CC(C)C(=C=CC[C@H](O)c1ccccc1OCCO)C[C@H](O)c1cc(Cl)cc(Cl)c1O
Response line: 1.48

Prompt line: Try this compound too: O=C1N(CCS(=O)(=O)c2ccccc2)c2ccccc2C[C@]12N=C(c1ccc(OCCCO)cc1)O[C@@H]2c1ccccc1
Response line: 3.22

Prompt line: Try this compound too: CC1=C([C@H](O)CCc2ccccc2)[C@H](CO)n2c(=O)n(-c3ccccc3)c(=O)n2C1
Response line: -0.35

Prompt line: Try this compound too: NC(=O)NCC#Cc1ccc2c(c1)[C@]1(C(=O)N2)[C@H](c2ccc(OCCO)cc2)N2[C@H](c3ccccc3)[C@H](c3ccccc3)OC(=O)[C@H]2[C@@H]1C(=O)O
Response line: 0.157

Prompt line: Try this compound too: CCCCC(O)C1C=CC2C(=O)N(c3ccccc3)C(=O)C2N1Nc1ccc([N+](=O)[O-])cc1 (stereo not given)
Response line: 2.61

Prompt line: Try this compound too: C=C(COC)/C(=C/C[C@H](OC(C)=O)c1ccccc1OCCO)c1cc(C(=O)OC)ccc1OC
Response line: 1.82

Prompt line: Try this compound too: CC(C)(C)N1CC=CC23O[C@@H]4C=CCCOC(=O)C4[C@H]2C(=O)N(CCCCCCO)[C@@H]3C1=O (stereo not given in full)
Response line: -0.0431

Prompt line: Try this compound too: O=C(NC1CC1)[C@@H]1c2ccccc2C(=O)N(Cc2ccc(OC(F)(F)F)cc2)[C@H]1c1ccc(CO)cc1
Response line: 1.41

Prompt line: Try this compound too: [N-]=[N+]=Nc1ccccc1[C@@H]1OC(c2ccc(OCCCO)cc2)=N[C@]1(CCS(=O)(=O)c1ccccc1)C(=O)NCC(O)CO (stereo not given in full)
Response line: 2.5

Prompt line: Try this compound too: CC1CC/C=C\[C@H]2OC34C=CCN(c5ccc6ccccc6c5)C(=O)[C@H]3N(C(C)CO)C(=O)[C@@H]4C2C(=O)O1 (stereo not given in full)
Response line: -0.976

Prompt line: Try this compound too: CC(C)C[C@@H]1NC(=O)[C@@]23C(=O)N[C@@H](Cc4ccccc4)C2[C@H](C)[C@@]2(C)O[C@H]2C3/C=C/C/C=C\CNC(=O)CNC1=O (stereo not given in full)
Response line: 0.283

Prompt line: Try this compound too: C=CCC(OC(C)=O)[C@@H]1[C@@H](N(Cc2ccc(-c3ccccc3)cc2)C(=O)c2cccc3ccccc23)c2cc(OCCCO)ccc2N1C(=O)Cc1ccc(OC)cc1 (stereo not given in full)
Response line: -0.212

Prompt line: Try this compound too: CCCC[C@H]1OB(O)C[C@H]2C1=C(COc1ccccc1)C[C@H]1C(=O)C=CC(=O)[C@H]12
Response line: -0.145

Prompt line: Try this compound too: CCCC=C(CCC)[C@@H](NC(=O)OCC(C)C)c1ccc(C(=O)OC)cc1
Response line: 0.141

Prompt line: Try this compound too: COc1ccc([Si](C)(C)[C@H]2[C@H](CC(=O)N3Cc4ccccc4C[C@H]3CO)O[C@@]3(C(=O)N(c4ccccc4)c4ccccc43)[C@@H]2C)cc1
Response line: 0.994
